# Tested on: 931267-113-T-J1-PDC multicell spheroid viability;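 note: viability read 7 days after compound addition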
# procedure_summary: Anticancer human tumor 931267-113-T-J1-PDC patient-derived colon adenocarcinoma cell line growth inhibition [PI3K]
# condition_summary: second compound 0.0316 µM; first compound 10 µM; active compounds read low
measured_property: viability, T/C (%)
// note: answer is a bare numeric in %

- compound: "C#Cc1c(F)ccc2cc(O)cc(-c3ncc4c(N5CC6CCC(C5)N6)nc(OCC56CCCN5CC(F)C6)nc4c3F)c12 (stereo unspecified) + CC(Nc1ncnc2nc[nH]c12)c1cc2cccc(Cl)c2c(=O)n1-c1ccccc1"
  viability, T/C [%]: 22.5
- compound: "CC1(C)CCC(Nc2ncc(C(F)(F)F)c(-c3c[nH]c4c(P(C)(C)=O)c(C#N)ccc34)n2)CN1 (stereo unspecified) + Cc1nc(NC(=O)N2CCCC2C(N)=O)sc1-c1ccnc(C(C)(C)C(F)(F)F)c1"
  viability, T/C [%]: 58.2
- compound: "C[C@@H](NC(=O)c1ncnc(N)c1Cl)c1ncc(C(=O)Nc2cc(C(F)(F)F)c(Cl)cn2)s1 + COc1c(OCCCN2CCOCC2)ccc2c3n(c(=NC(=O)c4cnc(N)nc4)nc12)CCN3"
  viability, T/C [%]: 51
- compound: "CNC(=O)c1ccc(N2C(=S)N(c3ccc(C#N)c(C(F)(F)F)c3)C(=O)C2(C)C)cc1F + CC(Nc1ncnc2nc[nH]c12)c1cc2cccc(Cl)c2c(=O)n1-c1ccccc1"
  viability, T/C [%]: 109
- compound: "C#Cc1c(F)ccc2cc(O)cc(-c3ncc4c(N5CC6CCC(C5)N6)nc(OCC56CCCN5CC(F)C6)nc4c3F)c12 (stereo unspecified) + Cc1nc(NC(=O)N2CCCC2C(N)=O)sc1-c1ccnc(C(C)(C)C(F)(F)F)c1"
  viability, T/C [%]: 23.8
- compound: "CC(Cn1ccc(-c2ccc(C#N)c(Cl)c2)n1)NC(=O)c1cc(C(C)O)[nH]n1 (stereo unspecified) + CC(Nc1ccc2c(c1)OCCn1cc(N3C(=O)OCC3C(F)F)nc1-2)C(N)=O"
  viability, T/C [%]: 91.5
- compound: "Cn1nccc1Nc1nccc(-c2ccn(C(CO)c3ccc(Cl)c(F)c3)c(=O)c2)n1 (stereo unspecified) + CC(Nc1ccc2c(c1)OCCn1cc(N3C(=O)OCC3C(F)F)nc1-2)C(N)=O"
  viability, T/C [%]: 33.1
- compound: "C#Cc1c(F)ccc2cc(O)cc(-c3ncc4c(N5CC6CCC(C5)N6)nc(OCC56CCCN5CC(F)C6)nc4c3F)c12 (stereo unspecified) + COc1c(OCCCN2CCOCC2)ccc2c3n(c(=NC(=O)c4cnc(N)nc4)nc12)CCN3"
  viability, T/C [%]: 11
- compound: "CC(C)NCC(C(=O)N1CCN(c2ncnc3c2C(C)CC3O)CC1)c1ccc(Cl)cc1 (stereo unspecified) + CC(Nc1ncnc2nc[nH]c12)c1cc2cccc(Cl)c2c(=O)n1-c1ccccc1"
  viability, T/C [%]: 81.6
- compound: "CC1(C)CCC(CN2CCN(c3ccc(C(=O)NS(=O)(=O)c4ccc(NCC5CCOCC5)c([N+](=O)[O-])c4)c(Oc4cnc5[nH]ccc5c4)c3)CC2)=C(c2ccc(Cl)cc2)C1 + COc1c(OCCCN2CCOCC2)ccc2c3n(c(=NC(=O)c4cnc(N)nc4)nc12)CCN3"
  viability, T/C [%]: 68.2

Hi! What's the reported viability, T/C for C[C@@H](NC(=O)c1ncnc(N)c1Cl)c1ncc(C(=O)Nc2cc(C(F)(F)F)c(Cl)cn2)s1 + CC(Nc1ncnc2nc[nH]c12)c1cc2cccc(Cl)c2c(=O)n1-c1ccccc1 on 931267-113-T-J1-PDC multicell spheroid viability?
74.5

Hi! What's the reported viability, T/C for CC1(C)CCC(CN2CCN(c3ccc(C(=O)NS(=O)(=O)c4ccc(NCC5CCOCC5)c([N+](=O)[O-])c4)c(Oc4cnc5[nH]ccc5c4)c3)CC2)=C(c2ccc(Cl)cc2)C1 + CC(Nc1ccc2c(c1)OCCn1cc(N3C(=O)OCC3C(F)F)nc1-2)C(N)=O on 931267-113-T-J1-PDC multicell spheroid viability?
14.5

Hi! What's the reported viability, T/C for CC(C)NCC(C(=O)N1CCN(c2ncnc3c2C(C)CC3O)CC1)c1ccc(Cl)cc1 (stereo unspecified) + Cc1nc(NC(=O)N2CCCC2C(N)=O)sc1-c1ccnc(C(C)(C)C(F)(F)F)c1 on 931267-113-T-J1-PDC multicell spheroid viability?
73.5

Hi! What's the reported viability, T/C for Cn1ncc(Cl)c1-c1cc(C(=O)NC(CN)Cc2cccc(F)c2)sc1Cl (stereo unspecified) + CC(Nc1ncnc2nc[nH]c12)c1cc2cccc(Cl)c2c(=O)n1-c1ccccc1 on 931267-113-T-J1-PDC multicell spheroid viability?
35.1
